Please respond with reported AC50 for every item in the list.
- Tgt: Amine oxidase [flavin-containing] A (Homo sapiens)
- Sequence (P21397 whole entry): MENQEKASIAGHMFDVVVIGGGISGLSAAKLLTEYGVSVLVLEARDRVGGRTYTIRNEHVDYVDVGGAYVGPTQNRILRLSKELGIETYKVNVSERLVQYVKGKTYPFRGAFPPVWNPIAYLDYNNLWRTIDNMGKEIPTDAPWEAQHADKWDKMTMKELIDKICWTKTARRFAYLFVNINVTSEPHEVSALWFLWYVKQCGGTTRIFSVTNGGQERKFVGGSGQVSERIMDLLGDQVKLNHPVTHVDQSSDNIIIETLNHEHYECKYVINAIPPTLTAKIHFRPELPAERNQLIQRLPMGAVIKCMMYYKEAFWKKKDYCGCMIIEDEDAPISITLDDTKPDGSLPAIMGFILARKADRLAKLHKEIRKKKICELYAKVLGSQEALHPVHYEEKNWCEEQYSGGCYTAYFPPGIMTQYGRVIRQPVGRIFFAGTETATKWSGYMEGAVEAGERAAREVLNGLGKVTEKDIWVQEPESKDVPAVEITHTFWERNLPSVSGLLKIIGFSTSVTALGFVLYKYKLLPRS
- Assay type: functional

Task: Item: CCCCCCC(C)(C)c1cc(O)c2c(c1)OC(C)(C)C1CCC(=O)CC21 (stereo not given) [NABILONE] Test system: Amine oxidase [flavin-containing] A (Homo sapiens) Read-out: AC50 Value: ?; note: assay procedure not described here
Result: > 30 µM

Task: Item: N/N=c1/cc2c(n[nH]1)CCN(C(=O)c1ccccc1)C2 [ENDRALAZINE] Test system: Amine oxidase [flavin-containing] A (Homo sapiens) Read-out: AC50 Value: ?; note: assay procedure not described here
Result: > 30 µM

Task: Item: N[C@@H](CSCC(=O)O)C(=O)O [CARBOCYSTEINE] Test system: Amine oxidase [flavin-containing] A (Homo sapiens) Read-out: AC50 Value: ?; note: assay procedure not described here
Result: > 30 µM

Task: Item: CN1CCC2=C(C1)C(c1ccccc1)c1ccccc12 (stereo not given) [PHENINDAMINE] Test system: Amine oxidase [flavin-containing] A (Homo sapiens) Read-out: AC50 Value: ?; note: assay procedure not described here
Result: > 10 µM

Task: Item: O=C(OCCN1CCOCC1)c1cccnc1Nc1cccc(C(F)(F)F)c1 [MORNIFLUMATE] Test system: Amine oxidase [flavin-containing] A (Homo sapiens) Read-out: AC50 Value: ?; note: assay procedure not described here
Result: > 30 µM

---

Please respond with reported AC50 for every item in the list.

Task: Item: "CCC1(C2=CCCCCC2)C(=O)NC(=O)NC1=O" Test system: Beta-2 adrenergic receptor (Homo sapiens) Read-out: AC50 Value: ?; note: assay procedure not described here
Sequence (P07550 whole entry): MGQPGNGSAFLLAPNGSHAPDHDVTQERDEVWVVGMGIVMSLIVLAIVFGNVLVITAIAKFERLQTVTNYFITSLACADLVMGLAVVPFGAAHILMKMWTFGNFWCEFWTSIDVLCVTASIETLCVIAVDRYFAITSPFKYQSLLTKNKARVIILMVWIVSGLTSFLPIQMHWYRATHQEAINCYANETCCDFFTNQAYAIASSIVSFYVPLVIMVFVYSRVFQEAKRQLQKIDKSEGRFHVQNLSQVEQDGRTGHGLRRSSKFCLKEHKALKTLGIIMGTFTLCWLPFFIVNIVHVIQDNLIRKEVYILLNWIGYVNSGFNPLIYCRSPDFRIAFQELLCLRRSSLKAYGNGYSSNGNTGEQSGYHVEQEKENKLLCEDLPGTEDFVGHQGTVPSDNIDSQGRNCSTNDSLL
Result: > 10 µM

Task: Item: "C[N+](C)(C)CCOC(N)=O" Test system: Beta-2 adrenergic receptor (Homo sapiens) Read-out: AC50 Value: ?; note: assay procedure not described here
Result: > 10 µM

Task: Item: "COc1ccc2c(c1)C(=O)N(CCc1ccc(S(=O)(=O)NC(=O)NC3CCCCC3)cc1)C(=O)C2(C)C" Test system: Beta-2 adrenergic receptor (Homo sapiens) Read-out: AC50 Value: ?; note: assay procedure not described here
Result: > 30 µM

Task: Item: "CNC(=O)c1cc(Oc2ccc(NC(=O)Nc3ccc(Cl)c(C(F)(F)F)c3)cc2)ccn1" Test system: Beta-2 adrenergic receptor (Homo sapiens) Read-out: AC50 Value: ?; note: assay procedure not described here
Result: > 30 µM

Task: Item: C1=Cc2cccc(OCC3CNCCO3)c2C1 (stereo unspecified) Test system: Beta-2 adrenergic receptor (Homo sapiens) Read-out: AC50 Value: ?; note: assay procedure not described here
Result: > 30 µM

Task: Item: "O=C(O)CCCc1ccccc1" Test system: Beta-2 adrenergic receptor (Homo sapiens) Read-out: AC50 Value: ?; note: assay procedure not described here
Result: > 10 µM

Task: Item: "Nc1nc(N)c2nc(-c3ccccc3)c(N)nc2n1" Test system: Beta-2 adrenergic receptor (Homo sapiens) Read-out: AC50 Value: ?; note: assay procedure not described here
Result: > 30 µM

Task: Item: COC(=O)C1=C(C)NC(C)=C(C(=O)OCC(C)C)C1c1ccccc1[N+](=O)[O-] (stereo unspecified) Test system: Beta-2 adrenergic receptor (Homo sapiens) Read-out: AC50 Value: ?; note: assay procedure not described here
Result: > 10 µM

Task: Item: O=C(Nc1ccccc1)OCC(CN1CCCCC1)OC(=O)Nc1ccccc1 (stereo unspecified) Test system: Beta-2 adrenergic receptor (Homo sapiens) Read-out: AC50 Value: ?; note: assay procedure not described here
Result: > 10 µM

Task: Item: "CN1C(=O)CC(=O)N(c2ccccc2)c2cc(Cl)ccc21" Test system: Beta-2 adrenergic receptor (Homo sapiens) Read-out: AC50 Value: ?; note: assay procedure not described here
Result: > 10 µM

Task: Item: C[C@H]1O[C@H](O[C@H]2[C@H](O)[C@@H](O)[C@@H](O[C@H]3[C@H](O)[C@@H](O)C(O)O[C@@H]3CO)O[C@@H]2CO)[C@H](O)[C@@H](O)[C@@H]1N[C@H]1C=C(CO)[C@@H](O)[C@H](O)[C@H]1O (stereo partly specified) Test system: Beta-2 adrenergic receptor (Homo sapiens) Read-out: AC50 Value: ?; note: assay procedure not described here
Result: > 30 µM

Task: Item: O=C(OCCN1CCOCC1)c1cccnc1Nc1cccc(C(F)(F)F)c1 [MORNIFLUMATE] Test system: Beta-2 adrenergic receptor (Homo sapiens) Read-out: AC50 Value: ?; note: assay procedure not described here
Result: > 30 µM

Task: Item: "O=C(CCCCCCC(=O)Nc1ccccc1)NO" Test system: Beta-2 adrenergic receptor (Homo sapiens) Read-out: AC50 Value: ?; note: assay procedure not described here
Result: > 10 µM

Task: Item: "CCc1nn(CCCN2CCN(c3cccc(Cl)c3)CC2)c(=O)n1CCOc1ccccc1" Test system: Beta-2 adrenergic receptor (Homo sapiens) Read-out: AC50 Value: ?; note: assay procedure not described here
Result: > 10 µM

Task: Item: "O=P(O)(O)C(O)(Cc1cccnc1)P(=O)(O)O" Test system: Beta-2 adrenergic receptor (Homo sapiens) Read-out: AC50 Value: ?; note: assay procedure not described here
Result: > 30 µM

Task: Item: "C#CCN(C)[C@H](C)Cc1ccccc1" Test system: Beta-2 adrenergic receptor (Homo sapiens) Read-out: AC50 Value: ?; note: assay procedure not described here
Result: > 10 µM

Task: Item: CN(C)C(=O)OC1N=C(c2ccccc2)c2cc(Cl)ccc2N(C)C1=O (stereo unspecified) Test system: Beta-2 adrenergic receptor (Homo sapiens) Read-out: AC50 Value: ?; note: assay procedure not described here
Result: > 10 µM

Task: Item: "COC(=O)[C@H]1[C@@H](OC(=O)c2ccccc2)C[C@@H]2CC[C@H]1N2C" Test system: Beta-2 adrenergic receptor (Homo sapiens) Read-out: AC50 Value: ?; note: assay procedure not described here
Result: > 30 µM

Task: Item: "Oc1ncnc2[nH]ncc12" Test system: Beta-2 adrenergic receptor (Homo sapiens) Read-out: AC50 Value: ?; note: assay procedure not described here
Result: > 10 µM

Task: Item: "O=C(O)c1cccc(-c2noc(-c3ccccc3F)n2)c1" Test system: Beta-2 adrenergic receptor (Homo sapiens) Read-out: AC50 Value: ?; note: assay procedure not described here
Result: > 30 µM

Task: Item: "COC(=O)N[C@H](C(=O)N[C@@H](Cc1ccccc1)[C@@H](O)CN(Cc1ccc(-c2ccccn2)cc1)NC(=O)[C@@H](NC(=O)OC)C(C)(C)C)C(C)(C)C" Test system: Beta-2 adrenergic receptor (Homo sapiens) Read-out: AC50 Value: ?; note: assay procedure not described here
Result: > 10 µM

Task: Item: CC(C)[N+](C)(CCC(C(N)=O)(c1ccccc1)c1ccccc1)C(C)C [ISOPROPAMIDE] Test system: Beta-2 adrenergic receptor (Homo sapiens) Read-out: AC50 Value: ?; note: assay procedure not described here
Result: > 10 µM

Task: Item: "CCCS(=O)(=O)Nc1ccc(F)c(C(=O)c2c[nH]c3ncc(-c4ccc(Cl)cc4)cc23)c1F" Test system: Beta-2 adrenergic receptor (Homo sapiens) Read-out: AC50 Value: ?; note: assay procedure not described here
Result: > 30 µM

Task: Item: "CC[C@H](C)C(=O)O[C@H]1C[C@H](O)C=C2C=C[C@H](C)[C@H](CC[C@@H](O)C[C@@H](O)CC(=O)O)[C@H]21" Test system: Beta-2 adrenergic receptor (Homo sapiens) Read-out: AC50 Value: ?; note: assay procedure not described here
Result: > 10 µM

Task: Item: "CCCCCN(C)CCC(O)(P(=O)(O)O)P(=O)(O)O" Test system: Beta-2 adrenergic receptor (Homo sapiens) Read-out: AC50 Value: ?; note: assay procedure not described here
Result: > 30 µM

Task: Item: "COc1cc(Nc2c(C#N)cnc3cc(OCCCN4CCN(C)CC4)c(OC)cc23)c(Cl)cc1Cl" Test system: Beta-2 adrenergic receptor (Homo sapiens) Read-out: AC50 Value: ?; note: assay procedure not described here
Result: > 10 µM

Task: Item: CC(Cc1ccccc1)NCCC(c1ccccc1)c1ccccc1 (stereo unspecified) Test system: Beta-2 adrenergic receptor (Homo sapiens) Read-out: AC50 Value: ?; note: assay procedure not described here
Result: 3.5 µM

Task: Item: "CS(=O)(=O)c1ccc([C@@H](O)[C@@H](CO)NC(=O)C(Cl)Cl)cc1" Test system: Beta-2 adrenergic receptor (Homo sapiens) Read-out: AC50 Value: ?; note: assay procedure not described here
Result: > 30 µM

Task: Item: CC(C(=O)O)c1ccc(N2CC=CC2)c(Cl)c1 (stereo unspecified) Test system: Beta-2 adrenergic receptor (Homo sapiens) Read-out: AC50 Value: ?; note: assay procedure not described here
Result: > 10 µM

Task: Item: "CCN(CC)CCOC(=O)c1ccc(N)cc1" Test system: Beta-2 adrenergic receptor (Homo sapiens) Read-out: AC50 Value: ?; note: assay procedure not described here
Result: > 10 µM

Task: Item: "CC(C)(C(=O)c1cccnc1)c1cccnc1" Test system: Beta-2 adrenergic receptor (Homo sapiens) Read-out: AC50 Value: ?; note: assay procedure not described here
Result: > 10 µM

Task: Item: CC(C(=O)O)c1ccc(C(=O)c2cccs2)cc1 (stereo unspecified) Test system: Beta-2 adrenergic receptor (Homo sapiens) Read-out: AC50 Value: ?; note: assay procedure not described here
Result: > 10 µM

Task: Item: "O=C(O)CCn1c2c(c3ccccc31)C[C@H](NS(=O)(=O)c1ccc(F)cc1)CC2" Test system: Beta-2 adrenergic receptor (Homo sapiens) Read-out: AC50 Value: ?; note: assay procedure not described here
Result: > 30 µM

Task: Item: Cc1cc2c(OCC(CNC(C)(C)C)OC(=O)c3ccccc3)cccc2[nH]1 (stereo unspecified) Test system: Beta-2 adrenergic receptor (Homo sapiens) Read-out: AC50 Value: ?; note: assay procedure not described here
Result: 0.0064 µM

Task: Item: "CN(CCCN1c2ccccc2CCc2ccccc21)CC(=O)c1ccc(Cl)cc1" Test system: Beta-2 adrenergic receptor (Homo sapiens) Read-out: AC50 Value: ?; note: assay procedure not described here
Result: 20 µM

Task: Item: NC(=O)c1cnccn1 [PYRAZINAMIDE] Test system: Beta-2 adrenergic receptor (Homo sapiens) Read-out: AC50 Value: ?; note: assay procedure not described here
Result: > 30 µM
